Test system: MDA-MB-231 human breast cancer cells
procedureDetails: MTT cell viability assay
Assay type: cell-based
experimentalContext: MDA-MB-231, 48 h, for MCs expressed as encapsulated chrysin content, read-out: IC50 (inhibitory concentration of chrysin for 50% viability)
pIC50: −log10 of the molar value.

>  <compound>
O=c1cc(-c2ccccc2)oc2cc(O)cc(O)c12 [chrysin, 5,7-dihydroxyflavone]

>  <pIC50>
3.95

$$$$

----------
procedureDetails: Hemolysis assay
Type: cell-based, human
experimentalContext: human, washed human red blood cells (RBC suspension), pH 7.2; 5 µg·mL^−1; 24 h, 37 °C; free chrysin solution in DMSO (5%); read-out: Percentage of Hemolysis

>  <compound>
O=c1cc(-c2ccccc2)oc2cc(O)cc(O)c12 [chrysin, 5,7-dihydroxyflavone]

>  <uom>
%

>  <hemolysis at 24 h, 5 µg·mL^−1>
1.2

$$$$

----------
procedureDetails: Hemolysis assay
Assay type: cell-based, human
experimentalContext: human, washed human red blood cells (RBC suspension), pH 7.2; 200 µg·mL^−1; 24 h, 37 °C; free chrysin solution in DMSO (5%); read-out: Percentage of Hemolysis
quantity: hemolysis at 24 h, 200 µg·mL^−1 (%)

>  <compound>
O=c1cc(-c2ccccc2)oc2cc(O)cc(O)c12 [chrysin, 5,7-dihydroxyflavone]

>  <reportedResult>
7

$$$$

----------
procedureDetails: Hemolysis assay
Type: cell-based, human
experimentalContext: human, washed human red blood cells (RBC suspension), pH 7.2; 60 µg·mL^−1; 24 h, 37 °C; free chrysin solution in DMSO (5%); read-out: Percentage of Hemolysis

>  <compound>
O=c1cc(-c2ccccc2)oc2cc(O)cc(O)c12 [chrysin, 5,7-dihydroxyflavone]

>  <uom>
%

>  <hemolysis at 24 h, 60 µg·mL^−1>
3

$$$$
